Dear all, this message contains IC50 results, target or system UniProt P62593.
Sequence (P62593 24-286 limits assumed): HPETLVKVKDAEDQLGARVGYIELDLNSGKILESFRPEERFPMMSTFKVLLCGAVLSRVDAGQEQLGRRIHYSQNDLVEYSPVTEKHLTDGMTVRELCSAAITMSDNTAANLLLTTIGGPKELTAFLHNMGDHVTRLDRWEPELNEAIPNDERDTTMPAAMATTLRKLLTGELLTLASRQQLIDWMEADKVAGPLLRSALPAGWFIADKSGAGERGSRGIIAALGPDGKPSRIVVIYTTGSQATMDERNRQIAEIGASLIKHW
The reply should contain only the number, in nM.

Entry under test: O=C1N2CC(n3nccc3CCO)=CC(C2)N1OS(=O)(=O)[O-].[Na+] (centres unmarked) . Its IC50 was 0.73

Please fill in: IC50 reported for NCCc1ccn(C2=CC3CN(C2)C(=O)N3OS(=O)(=O)O)n1 (centres unmarked) = 0.3

Memo: NCCONC(=O)c1ccn(C2=CC3CN(C2)C(=O)N3OS(=O)(=O)O)n1 (centres unmarked) , reported IC50: 0.89

Lab book: IC50 of O=C1N2CC(n3ccnc3CO)=CC(C2)N1OS(=O)(=O)[O-].[Na+] (centres unmarked) noted as 0.63

O=C(Nc1ccn(C2=CC3CN(C2)C(=O)N3OS(=O)(=O)O)n1)c1cncs1 (centres unmarked) has a reported IC50 of 1.1

Item: CNCc1cn(C2=CC3CN(C2)C(=O)N3OS(=O)(=O)O)nn1 (centres unmarked) | IC50: 0.35

Given item O=C(CO)Nc1ccn(C2=CC3CN(C2)C(=O)N3OS(=O)(=O)[O-])n1.[Na+] (centres unmarked) , the value recorded as its IC50 is 1.2

The reported IC50 of the compound NS(=O)(=O)c1cnn(C2=CC3CN(C2)C(=O)N3OS(=O)(=O)[O-])c1.[Na+] (centres unmarked) was 0.56

---

target: OXA-15 (Pseudomonas aeruginosa, UniProt Q51574); test: biochemical
quantity.measured: pIC50
Scale: pIC50 equals -log10([C]), with [C] in mol/L.

Recorded result, NS(=O)(=O)c1cnn(C2=CC3CN(C2)C(=O)N3OS(=O)(=O)[O-])c1.[Na+] (stereo not shown) , pIC50: 7.38

The compound listed as O=C(c1ccn(C2=CC3CN(C2)C(=O)N3OS(=O)(=O)[O-])n1)N1CCOCC1.[Na+] (stereo not shown) [Example 31, sulfate] has a reported pIC50 of 7.06

Record O=C(NCCN1CCOCC1)c1ccn(C2=CC3CN(C2)C(=O)N3OS(=O)(=O)O)n1 (stereo not shown) . Reported pIC50: 7.37

get_value(item= O=C(NC1CCNCC1)c1ccn(C2=CC3CN(C2)C(=O)N3OS(=O)(=O)O)n1 (stereo not shown) , readout=pIC50) returns 7.41

The reported value for NC(=O)CNCc1cn(C2=CC3CN(C2)C(=O)N3OS(=O)(=O)O)nn1 (stereo not shown) in terms of pIC50 is 8.12

pIC50 reported for this compound [2H]c1nn(C2=CC3CN(C2)C(=O)N3OS(=O)(=O)[O-])c([2H])c1[2H].[Na+] (stereo not shown) : 6.85

Notebook: O=C1N2CC(n3ccsc3=O)=CC(C2)N1OS(=O)(=O)[O-].[Na+] (stereo not shown) , pIC50 read as 7.04

What the record says about O=C(Nc1ccn(C2=CC3CN(C2)C(=O)N3OS(=O)(=O)[O-])n1)c1nccs1.[Na+] (stereo not shown) : pIC50 is 7.47

Record O=C(NOCCO)c1ccn(C2=CC3CN(C2)C(=O)N3OS(=O)(=O)[O-])n1.[Na+] (stereo not shown) , field pIC50: 6.80

Summary for this compound, O=C1N2CC(n3cc(CO)nn3)=CC(C2)N1OS(=O)(=O)O (stereo not shown) : pIC50 is 8.06

---

molecular target: AmpC (PAE) (Pseudomonas aeruginosa, UniProt P24735); settings: read-out: IC50 β-lactamase AmpC (PAE); class (C); nitrocefin 200 μM, 30-min pre-incubation, enzyme 0.4 nM
# strict inequality: IC50 < 400 nM yields true (1), everything else yields false (0)

Problem: Identify whether the compound O=C([O-])Cc1cn(C2=CC3CN(C2)C(=O)N3OS(=O)(=O)[O-])nn1.[Na+].[Na+] (stereo not shown) [Example 61] records IC50 below 400 nM.
Solution: false (0)

Problem: Decide: IC50 of NCCONC(=O)c1cnn(C2=CC3CN(C2)C(=O)N3OS(=O)(=O)[O-])c1.O=C(O)C(F)(F)F.[Na+] (stereo not shown) [Example 24] strictly below 400 nM?
Solution: true (1)

Problem: Quick check: IC50 of O=C1N2CC(n3cc(-c4nccs4)nn3)=CC(C2)N1OS(=O)(=O)[O-].[Na+] (stereo not shown) [Example 55] under 400 nM?
Solution: true (1)

Problem: Lab note: IC50 threshold 400 nM. Does this compound come in strictly under it? CN(C)Cc1cn(C2=CC3CN(C2)C(=O)N3OS(=O)(=O)[O-])nn1.[Na+] (stereo not shown) [Example 59]
Solution: false (0)

Problem: Given NCc1cnn(C2=CC3CN(C2)C(=O)N3OS(=O)(=O)[O-])c1.O=C(O)C(F)(F)F.[Na+] (stereo not shown) [Example 15] , is recorded IC50 strictly lower than 400 nM?
Solution: true (1)

Problem: Dear reviewer, please state whether NCc1ccn(C2=CC3CN(C2)C(=O)N3OS(=O)(=O)[O-])n1.O=C(O)C(F)(F)F.[Na+] (stereo not shown) [Example 49] has IC50 strictly beneath 400 nM.
Solution: false (0)

Problem: Identify whether the compound NC(=O)c1cc(F)n(C2=CC3CN(C2)C(=O)N3OS(=O)(=O)[O-])n1.[Na+] (stereo not shown) [Example 30] records IC50 below 400 nM.
Solution: true (1)

---

system: K. pneumoniae 6299; assay: MIC of compound alone, broth microdilution; assay type: cell-based; settings: Klebsiella pneumoniae; strain 6299; compound alone; read-out: MIC compounds of the invention alone
Would you mind telling me the reported MIC of each entry?

Summary for this compound, O=C1N2CC(n3cc(F)cn3)=CC(C2)N1OS(=O)(=O)[O-].[Na+] (centres unmarked) : MIC is 16 µg/mL

For reference, reported MIC for CC(=O)c1ccn(C2=CC3CN(C2)C(=O)N3OS(=O)(=O)[O-])n1.[Na+] (centres unmarked) stands at > 32 µg/mL

Reported MIC for O=C(c1ccn(C2=CC3CN(C2)C(=O)N3OS(=O)(=O)[O-])n1)N1CCOCC1.[Na+] (centres unmarked) was > 32 µg/mL

MIC recorded for this compound, O=C1N2CC(n3cc(CNCCO)nn3)=CC(C2)N1OS(=O)(=O)O (centres unmarked) , is > 32 µg/mL

Please fill in: MIC reported for O=C(Nc1ccn(C2=CC3CN(C2)C(=O)N3OS(=O)(=O)O)n1)c1cncs1 (centres unmarked) = > 32 µg/mL

# MIC of O=C(N[C@H]1CCNC1)c1ccn(C2=CC3CN(C2)C(=O)N3OS(=O)(=O)O)n1 (some centres unmarked) = 32 µg/mL

Data point: O=C(Nc1nccs1)c1ccn(C2=CC3CN(C2)C(=O)N3OS(=O)(=O)[O-])n1.[Na+] (centres unmarked) ; MIC = > 32 µg/mL

So for NC(=O)c1ccn(C2=CC3CN(C2)C(=O)N3OS(=O)(=O)[O-])n1.[Na+] (centres unmarked) , the logged MIC turned out to be 16 µg/mL

MIC for O=C(Nc1ccccn1)c1ccn(C2=CC3CN(C2)C(=O)N3OS(=O)(=O)[O-])n1.[Na+] (centres unmarked) is > 32 µg/mL

Just so you know, measured MIC for O=C(CCO)Nc1ccn(C2=CC3CN(C2)C(=O)N3OS(=O)(=O)[O-])n1.[Na+] (centres unmarked) came out at 16 µg/mL

Entry NC(=O)Cc1ccn(C2=CC3CN(C2)C(=O)N3OS(=O)(=O)[O-])n1.[Na+] (centres unmarked) , MIC reported as > 32 µg/mL

For reference, reported MIC for N#Cc1cnn(C2=CC3CN(C2)C(=O)N3OS(=O)(=O)[O-])c1.[Na+] (centres unmarked) stands at > 32 µg/mL

The compound identified as O=C(Nc1ncns1)c1ccn(C2=CC3CN(C2)C(=O)N3OS(=O)(=O)O)n1 (centres unmarked) registered its MIC at > 32 µg/mL

The compound O=C1N2CC(n3ccc(CO)n3)=CC(C2)N1OS(=O)(=O)O (centres unmarked) showed MIC equal to 16 µg/mL

For reference, reported MIC for O=C1N2CC(n3cc(CO)nn3)=CC(C2)N1OS(=O)(=O)O (centres unmarked) stands at 32 µg/mL

Input NS(=O)(=O)c1cnn(C2=CC3CN(C2)C(=O)N3OS(=O)(=O)[O-])c1.[Na+] (centres unmarked) . Output MIC: > 32 µg/mL

Entry CC(=O)c1cnn(C2=CC3CN(C2)C(=O)N3OS(=O)(=O)[O-])c1.[Na+] (centres unmarked) — recorded MIC = > 32 µg/mL

---

molecular target: OXA-48 (Klebsiella pneumoniae, UniProt Q6XEC0); conditions: read-out: IC50 β-lactamase OXA-48; class (D); nitrocefin 200 μM, 30-min pre-incubation, enzyme 0.3 nM
Sequence (Q6XEC0 23-265, looked up, species assumed): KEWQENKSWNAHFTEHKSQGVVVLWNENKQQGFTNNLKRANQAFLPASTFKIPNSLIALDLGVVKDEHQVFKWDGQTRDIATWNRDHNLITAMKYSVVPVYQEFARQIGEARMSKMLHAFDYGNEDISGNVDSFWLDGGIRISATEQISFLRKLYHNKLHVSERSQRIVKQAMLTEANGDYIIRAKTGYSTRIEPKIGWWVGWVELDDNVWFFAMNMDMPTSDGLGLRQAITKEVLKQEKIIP
Assign labels as follows, please: class 1 for IC50 below 6 nM; class 0 for IC50 equal to or exceeding 6 nM.

Problem: Determine if O=C([O-])Cc1cn(C2=CC3CN(C2)C(=O)N3OS(=O)(=O)[O-])nn1.[Na+].[Na+] (centres unmarked) [Example 61] shows IC50 strictly lower than 6 nM.
Solution: class 1

Problem: Criterion: IC50 strictly below 6 nM. Is it met by NCCONC(=O)c1cnn(C2=CC3CN(C2)C(=O)N3OS(=O)(=O)[O-])c1.O=C(O)C(F)(F)F.[Na+] (centres unmarked) [Example 24] ?
Solution: class 1

Problem: Would you kindly verify if IC50 of Cc1cc(C(N)=O)nn1C1=CC2CN(C1)C(=O)N2OS(=O)(=O)[O-].[Na+] (centres unmarked) [Example 23] is strictly less than 6 nM?
Solution: class 0

Problem: Given the entry NC(=O)c1nn(C2=CC3CN(C2)C(=O)N3OS(=O)(=O)[O-])cc1F.[Na+] (centres unmarked) [Example 26] , would its reported IC50 be below 6 nM?
Solution: class 0

Problem: Bench note: check whether CN(C)Cc1cn(C2=CC3CN(C2)C(=O)N3OS(=O)(=O)[O-])nn1.[Na+] (centres unmarked) [Example 59] shows IC50 below 6 nM
Solution: class 1

Problem: For this compound, is IC50 lower than 6 nM? O=C1N2CC(n3cc(N4CCOCC4)cn3)=CC(C2)N1OS(=O)(=O)[O-].[Na+] (centres unmarked) [Example 20]
Solution: class 0

Problem: Regarding O=C1N2CC(n3ccc(-c4ncco4)n3)=CC(C2)N1OS(=O)(=O)[O-].[Na+] (centres unmarked) [Example 78] , kindly confirm whether its IC50 is beneath 6 nM.
Solution: class 1

Problem: is_below(IC50, 6 nM) for O=C1N2CC(n3cc(S(=O)(=O)NCCO)cn3)=CC(C2)N1OS(=O)(=O)[O-].[Na+] (centres unmarked) [Example 74] ?
Solution: class 1

Problem: Please state whether IC50 is below 6 nM for NCc1cn(C2=CC3CN(C2)C(=O)N3OS(=O)(=O)[O-])nn1.O=C(O)C(F)(F)F.[Na+] (centres unmarked) [Example 57]
Solution: class 1

Problem: Does this compound meet the criterion IC50 < 6 nM? NCc1cnn(C2=CC3CN(C2)C(=O)N3OS(=O)(=O)[O-])c1.O=C(O)C(F)(F)F.[Na+] (centres unmarked) [Example 15]
Solution: class 0

Problem: Check if IC50 falls below 6 nM for NCCNC(=O)Cc1ccn(C2=CC3CN(C2)C(=O)N3OS(=O)(=O)[O-])n1.O=C(O)C(F)(F)F.[Na+] (centres unmarked) [Example 48] .
Solution: class 0

Problem: Is the reported IC50 for C/C(=N/O)c1cnn(C2=CC3CN(C2)C(=O)N3OS(=O)(=O)[O-])c1.[Na+] (centres unmarked) [Example 39] strictly below 6 nM?
Solution: class 1

Problem: Would you kindly verify if IC50 of O=C1N2CC(n3ccnn3)=CC(C2)N1OS(=O)(=O)[O-].[Na+] (centres unmarked) [Example 2] is strictly less than 6 nM?
Solution: class 1

Problem: Does this compound meet the criterion IC50 < 6 nM? NC(=O)c1cn(C2=CC3CN(C2)C(=O)N3OS(=O)(=O)[O-])nn1.[Na+] (centres unmarked) [Example 56]
Solution: class 1

Problem: # strict comparison: is reported IC50 < 6 nM? input = CN(C)C.NC(=O)CCc1nccn1C1=CC2CN(C1)C(=O)N2OS(=O)(=O)O (centres unmarked) [Example 73]
Solution: class 1

Problem: Determine whether this compound shows IC50 lower than 6 nM (ties excluded): N#Cc1ccn(C2=CC3CN(C2)C(=O)N3OS(=O)(=O)[O-])n1.[Na+] (centres unmarked) [Example 17]
Solution: class 1

Problem: Check if IC50 falls below 6 nM for NCc1ccn(C2=CC3CN(C2)C(=O)N3OS(=O)(=O)[O-])n1.O=C(O)C(F)(F)F.[Na+] (centres unmarked) [Example 49] .
Solution: class 0

Problem: Is the reported IC50 for CC(=O)Nc1cnn(C2=CC3CN(C2)C(=O)N3OS(=O)(=O)[O-])c1.[Na+] (centres unmarked) [Example 21] strictly below 6 nM?
Solution: class 0

Problem: Could you please tell me whether IC50 recorded for O=C1N2CC(n3cc(-c4nccs4)nn3)=CC(C2)N1OS(=O)(=O)[O-].[Na+] (centres unmarked) [Example 55] is less than 6 nM?
Solution: class 1

Problem: Here's an entry: O=C([O-])CCc1cn(C2=CC3CN(C2)C(=O)N3OS(=O)(=O)[O-])nn1.[Na+].[Na+] (centres unmarked) [Example 65] . Is its IC50 below 6 nM?
Solution: class 1

Problem: Record NC(=O)c1cc(F)n(C2=CC3CN(C2)C(=O)N3OS(=O)(=O)[O-])n1.[Na+] (centres unmarked) [Example 30] : is its IC50 strictly below 6 nM?
Solution: class 0

Problem: Decide: IC50 of CC(=O)Nc1ccn(C2=CC3CN(C2)C(=O)N3OS(=O)(=O)O)n1.CCN(CC)CC (centres unmarked) [Example 33] strictly below 6 nM?
Solution: class 1

Entry source: patent US10722520B2
